Source listed as patent US6642217B2.

# Tested on: Microsporum canis
# TEST_DESCRIPTION: Direct addition method, solid compound in Sabouraud dextrose agar
# Type: cell-based
# Set-up: key: +++: Maximum Fungal Growth; ++: Moderate Fungal Growth; +: Minimum Fungal Growth; +/−: Very little Fungal Growth; −: No Fungal Growth
# CONDITIONS_USED: 4 mg/mL of agar; 12th day after inoculation
EXPERIMENTAL_READOUT: Fungal growth

[
  {
    "COMPOUND": "CC1(C)CCC23CCC4(C)C(CCC5C6(C)CCC(OC(=O)CCCC(=O)O)C(C)(C)C6CCC54C)C2C1OC3 (stereo not drawn) [Allobetulin-3-glutarate]",
    "TEST_TARGET": "Microsporum canis",
    "EXPERIMENTAL_READOUT": "Fungal growth",
    "MEASURED": "+"
  },
  {
    "COMPOUND": "C[C@@H]1[C@H](O)[C@@H](C)/C=C/C=C/CC/C=C/C=C/C=C/C=C/C(O[C@H]2O[C@H](C)[C@@H](O)[C@H](N)[C@@H]2O)CC2O[C@](O)(CC(O)C(O)CCC(O)CC(O)CC(O)CC(=O)O[C@H]1C)CC(O)C2C(=O)O (stereo partly drawn) [Nystatin, reference compound]",
    "TEST_TARGET": "Microsporum canis",
    "EXPERIMENTAL_READOUT": "Fungal growth",
    "MEASURED": "−"
  },
  {
    "COMPOUND": "CC(C)C(N)C(=O)OC1CCC2(C)C(CCC3(C)C2CCC2C4C5OCC4(CCC5(C)C)CCC23C)C1(C)C [Allobetulin-3-L-valine]",
    "TEST_TARGET": "Microsporum canis",
    "EXPERIMENTAL_READOUT": "Fungal growth",
    "MEASURED": "+"
  }
]

###

# Tested on: Epidermophyton floccosum
# TEST_DESCRIPTION: Agar dilution method, growth on Sabouraud dextrose agar slants
# Type: cell-based
# Set-up: key: +++: Maximum Fungal Growth; ++: Moderate Fungal Growth; +: Minimum Fungal Growth; +/−: Very little Fungal Growth; −: No Fungal Growth
# CONDITIONS_USED: 125 μg/ml; 12th day after inoculation

[
  {
    "MOLECULE": "CC1(C)CCC23CC[C@@]4(C)C(CCC5[C@@]6(C)CCC(OC(=O)CCC(=O)O)C(C)(C)C6CC[C@]54C)C2C1OC3 (some centres unmarked) [Allobetulin-3-succinate]",
    "Fungal growth": "++"
  },
  {
    "MOLECULE": "COC1=CC(=O)C[C@@H](C)[C@]12Oc1c(Cl)c(OC)cc(OC)c1C2=O [Griseofulvin, reference compound]",
    "Fungal growth": "++"
  },
  {
    "MOLECULE": "C=C(C)[C@@H]1CC[C@]2(COC(=O)COCC(=O)O)CC[C@]3(C)[C@H](CC[C@@H]4[C@@]5(C)CC[C@H](OC(=O)COCC(=O)O)C(C)(C)[C@@H]5CC[C@]43C)[C@@H]12 [Betulin-3,28-didiglycolate]",
    "Fungal growth": "++"
  },
  {
    "MOLECULE": "C[C@@H]1[C@H](O)[C@@H](C)/C=C/C=C/CC/C=C/C=C/C=C/C=C/C(O[C@H]2O[C@H](C)[C@@H](O)[C@H](N)[C@@H]2O)CC2O[C@](O)(CC(O)C(O)CCC(O)CC(O)CC(O)CC(=O)O[C@H]1C)CC(O)C2C(=O)O (some centres unmarked) [Nystatin, reference compound]",
    "Fungal growth": "+/−"
  },
  {
    "MOLECULE": "C=C(C)C1CCC2(CO)CCC3(C)C(CCC4C5(C)CCC(OC(=O)C=CC(=O)O)C(C)(C)C5CCC43C)C12 (centres unmarked) [Betulin-3-maleate]",
    "Fungal growth": "++"
  }
]
